# targetUnderTest: T1, HLA-DRB1*1302 (human)
# T1 construct: Purified HLA molecule; also called DR6w19
# method: inhibition of 125I probe peptide binding to purified HLA-DR, gel filtration
parameter: pIC50
# pIC50 is unitless: minus log10 of the molar concentration; print number only

Documented pIC50 of DEAYVMAGVGSPYVS (Synthetic peptide) [Her2/neu.769] : 5.76
